tested_on: Rat Androgen Receptors (Rat AR) (Rattus norvegicus, UniProt P15207)
Construct: from tissue; host or cells: prostate of orchiectomized 11-week-old male SD rats (100,000 x g supernatant of the homogenate)
Sequence (P15207 1-902): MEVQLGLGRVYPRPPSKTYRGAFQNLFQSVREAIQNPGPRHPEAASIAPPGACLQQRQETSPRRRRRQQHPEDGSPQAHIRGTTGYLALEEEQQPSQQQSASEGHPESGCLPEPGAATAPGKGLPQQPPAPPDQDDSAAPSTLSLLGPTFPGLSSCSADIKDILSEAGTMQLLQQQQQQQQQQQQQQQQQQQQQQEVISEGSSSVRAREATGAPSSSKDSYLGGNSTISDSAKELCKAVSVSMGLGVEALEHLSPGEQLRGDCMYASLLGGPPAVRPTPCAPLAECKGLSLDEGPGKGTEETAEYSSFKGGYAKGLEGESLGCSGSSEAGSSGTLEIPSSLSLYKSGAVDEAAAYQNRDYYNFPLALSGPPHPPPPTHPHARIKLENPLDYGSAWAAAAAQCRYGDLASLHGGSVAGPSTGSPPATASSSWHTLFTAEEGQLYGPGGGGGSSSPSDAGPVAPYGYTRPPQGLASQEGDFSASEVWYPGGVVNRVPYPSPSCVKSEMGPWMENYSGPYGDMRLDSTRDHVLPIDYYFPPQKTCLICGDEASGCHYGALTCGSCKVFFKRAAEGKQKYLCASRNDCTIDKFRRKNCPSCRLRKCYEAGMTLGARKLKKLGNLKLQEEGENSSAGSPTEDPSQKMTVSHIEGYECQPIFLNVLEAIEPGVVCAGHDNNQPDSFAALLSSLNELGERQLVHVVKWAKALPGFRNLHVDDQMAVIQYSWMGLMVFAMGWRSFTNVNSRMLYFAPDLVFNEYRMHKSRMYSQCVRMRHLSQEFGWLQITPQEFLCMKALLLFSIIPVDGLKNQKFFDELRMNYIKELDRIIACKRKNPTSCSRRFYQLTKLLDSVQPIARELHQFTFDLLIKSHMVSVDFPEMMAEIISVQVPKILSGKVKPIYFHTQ
assay_comment: Test for competitive binding to rat androgen receptors (3H-testosterone displacement, prostate AR fraction)
assay_setup: RBA=100×(IC50 of hydroxyflutamide)/(IC50 of the compound)
endpoint_name: RBA (Relative Binding Affinity)
Answer with a number only.

Prompt: // RBA (Relative Binding Affinity) lookup, key: CC(C)(CO)C1CC(NCc2ccccc2)c2cc([N+](=O)[O-])ccc2N1 (stereo not shown) [Example 30]
Completion: 370

Prompt: // RBA (Relative Binding Affinity) lookup, key: CC(=O)OCC(C)(C)C1CC(N(C)C)c2cc([N+](=O)[O-])ccc2N1 (stereo not shown) [Example 9]
Completion: 79

Prompt: // RBA (Relative Binding Affinity) lookup, key: CC(C)(O)C(=O)Nc1ccc([N+](=O)[O-])c(C(F)(F)F)c1 [Hydroxyflutamide, reference compound]
Completion: 100

Prompt: // RBA (Relative Binding Affinity) lookup, key: CN(C)C1CC(C(C)(C)COC(=O)c2ccc(F)cc2)Nc2ccc([N+](=O)[O-])cc21 (stereo not shown) [Example 11]
Completion: 98
